experiment: Aqueous solubility of felodipine; type: physicochemical; conditions: aqueous media

[
  {
    "COMPOUND": "CCOC(=O)C1=C(C)NC(C)=C(C(=O)OC)C1c1cccc(Cl)c1Cl (racemic)",
    "solubility, µg/mL": 0.5
  }
]

Cited source for all entries: patent US20020086061A1
